- System: SR
- EXPERIMENTAL DETAILS: Cytotoxicity against human SR cells at 10 uM after 48 hrs by coulter counter analysis
- Format: functional
- EXPERIMENTAL CONTEXT: read-out: GI
Record form. Attribute: inhibition of growth at 10 µM. Fill in for each entry.

Input: Please indicate inhibition of growth at 10 µM recorded for COc1cc2nc(Sc3cnc(N)s3)n(Cc3ccccc3)c(=O)c2cc1OC
Output: < 10%

Input: Please indicate inhibition of growth at 10 µM recorded for COc1cc2nc(Sc3ncccc3C(=O)O)n(-c3ccccc3)c(=O)c2cc1OC
Output: < 10%

Input: Please indicate inhibition of growth at 10 µM recorded for Cc1ccc2nc(Sc3ncccc3C(=O)O)n(-c3ccccc3)c(=O)c2c1
Output: < 10%

====

Record form. Attribute: inhibition of growth at 10 µM. Fill in for each entry.
- System: PC-3
- EXPERIMENTAL DETAILS: Cytotoxicity against human PC3 cells at 10 uM after 48 hrs by coulter counter analysis
- Assay type: functional
- EXPERIMENTAL CONTEXT: PC-3, 48 h, read-out: GI

Input: Please indicate inhibition of growth at 10 µM recorded for COc1cc2nc(Sc3ncccc3C(=O)O)n(Cc3ccccc3)c(=O)c2cc1OC
Output: < 10%

Input: Please indicate inhibition of growth at 10 µM recorded for COc1cc2nc(Sc3ncccc3C(=O)O)n(-c3ccccc3)c(=O)c2cc1OC
Output: < 10%

Input: Please indicate inhibition of growth at 10 µM recorded for O=C(O)c1cccnc1Sc1nc2ccc(Cl)cc2c(=O)n1-c1ccccc1
Output: < 10%

====

Record form. Attribute: zone of inhibition at 200 µg/disc. Fill in for each entry.
- Test system: Pseudomonas aeruginosa
- EXPERIMENTAL DETAILS: Antimicrobial activity against Pseudomonas aeruginosa at 200 ug after 24 hrs by agar disc diffusion method
- Format: functional
- EXPERIMENTAL CONTEXT: read-out: DIZ
Output spec: scalar in mm, unitless text.

Input: Please indicate zone of inhibition at 200 µg/disc recorded for O=C(O)c1ccc([N+](=O)[O-])cc1Sc1nc2ccc(Cl)cc2c(=O)n1Cc1ccccc1
Output: 8

Input: Please indicate zone of inhibition at 200 µg/disc recorded for CCOC(=O)c1nc(N)sc1Sc1nc2cc(OC)c(OC)cc2c(=O)n1Cc1ccccc1
Output: 8

Input: Please indicate zone of inhibition at 200 µg/disc recorded for O=C(O)c1cccnc1Sc1nc2ccc(Cl)cc2c(=O)n1-c1ccccc1
Output: 8

Input: Please indicate zone of inhibition at 200 µg/disc recorded for O=C(O)c1ccc([N+](=O)[O-])cc1Sc1nc2ccc(Cl)cc2c(=O)n1-c1ccccc1
Output: 8

Input: Please indicate zone of inhibition at 200 µg/disc recorded for CCOC(=O)c1nc(N)sc1Sc1nc2ccc(C)cc2c(=O)n1-c1ccccc1
Output: 12

Input: Please indicate zone of inhibition at 200 µg/disc recorded for Nc1ncc(Sc2nc3ccc(Cl)cc3c(=O)n2Cc2ccccc2)s1
Output: 8

Input: Please indicate zone of inhibition at 200 µg/disc recorded for O=C(O)c1cccnc1Sc1nc2ccc(Cl)cc2c(=O)n1Cc1ccccc1
Output: 8

Input: Please indicate zone of inhibition at 200 µg/disc recorded for Cc1ccc2nc(Sc3ncccc3C(=O)O)n(Cc3ccccc3)c(=O)c2c1
Output: 8

Input: Please indicate zone of inhibition at 200 µg/disc recorded for CCOC(=O)c1nc(N)sc1Sc1nc2cc(OC)c(OC)cc2c(=O)n1-c1ccccc1
Output: 8

Input: Please indicate zone of inhibition at 200 µg/disc recorded for CCOC(=O)c1nc(N)sc1Sc1nc2ccc(C)cc2c(=O)n1Cc1ccccc1
Output: 18

Input: Please indicate zone of inhibition at 200 µg/disc recorded for Cc1ccc2nc(Sc3cnc(N)s3)n(Cc3ccccc3)c(=O)c2c1
Output: 8
